// provenance: patent US6737383B1

Each entry below carries its recorded Blackgrass plant response rating.
test system: blackgrass; test: Test B pre/postemergence blackgrass; type: in vivo, Alopecurus myosuroides; details: Postemergence, Rate 125 g/ha; scale of 0 to 10 where 0 is no effect and 10 is complete control

- compound: "Cc1nsc(C)c1-n1c(=O)on(C(=O)N(c2ccc(Cl)cc2)C(C)C)c1=O"
  Blackgrass plant response rating: 0
- compound: "CC(C)N(C(=O)n1oc(=O)n(CCN(C)C(=O)c2ccccc2)c1=O)c1ccc(F)cc1"
  Blackgrass plant response rating: 0
- compound: "COC1CCC(Cn2c(=O)on(C(=O)N(c3ccc(Cl)cc3)C(C)C)c2=O)=NO1 (centres unmarked)"
  Blackgrass plant response rating: 0
- compound: "Cc1nsc(C)c1-n1c(=O)on(C(=O)N(c2ccc(F)cc2)C(C)C)c1=O"
  Blackgrass plant response rating: 0
- compound: "CC(C)N(C(=O)n1oc(=O)n(CCF)c1=O)c1ccc(F)cc1F"
  Blackgrass plant response rating: 4
